- test-system: HDAC1 (Homo sapiens, UniProt Q13547)
- Construct: purchased Enzo Life Sciences
- Sequence (Q13547 whole entry): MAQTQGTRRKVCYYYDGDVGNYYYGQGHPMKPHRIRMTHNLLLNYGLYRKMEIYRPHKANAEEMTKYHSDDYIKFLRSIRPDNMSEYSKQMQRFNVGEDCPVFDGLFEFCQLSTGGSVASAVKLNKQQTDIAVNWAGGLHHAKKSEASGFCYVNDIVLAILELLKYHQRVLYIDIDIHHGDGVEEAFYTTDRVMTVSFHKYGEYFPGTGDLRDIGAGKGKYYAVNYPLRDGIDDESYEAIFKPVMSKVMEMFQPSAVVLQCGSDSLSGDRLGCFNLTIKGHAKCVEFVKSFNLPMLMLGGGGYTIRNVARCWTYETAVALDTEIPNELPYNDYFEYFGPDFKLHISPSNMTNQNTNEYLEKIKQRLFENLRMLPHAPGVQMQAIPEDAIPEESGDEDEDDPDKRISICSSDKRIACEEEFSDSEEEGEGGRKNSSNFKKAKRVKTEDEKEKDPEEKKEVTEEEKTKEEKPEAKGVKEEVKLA
- assay-summary: HDAC Inhibition Screening Assay (FLUOR DE LYS Fluorimetric Drug Discovery Kit), HDAC1
- Assay type: biochemical
- run-parameters: 10 μM compound
- Description: The HDAC1/HDAC2/HDAC3 in vitro activities are detected by Enzo Life Sciences' HDAC1/HDAC2/HDAC3 Fluorimetric Drug Discovery Kit. The assay is based on the FLUOR DE LYS® Substrate and FLUOR DE LYS® Developer combination. The assay procedure has two steps. […] The signals of the test compounds (Compounds 1˜83; at concentrations of 2 μM, 10 μM and 50 μM) in 96-well plates are detected at 360 nm or 485 nm excitation and 460 nm or 530 nm emission with a Molecular Devices SpectraMax i3 Imaging Cytometer. […]
Listed here: items and their measured inhibition at 10 µM.

Below, each entry is followed by its recorded inhibition at 10 µM result.
>  <compound>
O=C(/C=C/c1ccc2c(c1)CCC2NC(=O)c1cc(C(F)(F)F)cc(C(F)(F)F)c1)NO (stereo not shown)

>  <test-system>
HDAC1 (Homo sapiens, UniProt Q13547)

>  <measurement-kind>
inhibition at 10 µM

>  <reported-value>
> 80%

$$$$
>  <compound>
O=C(/C=C/c1ccc(COc2ccc3c(c2)CC/C(=C\c2cc(C(F)(F)F)cc(C(F)(F)F)c2)C3=O)cc1)NO

>  <test-system>
HDAC1 (Homo sapiens, UniProt Q13547)

>  <measurement-kind>
inhibition at 10 µM

>  <reported-value>
< 50%

$$$$

// sample O=C(CCCCCCC(=O)NC1CCCc2cc(Br)ccc21)NO (stereo not shown) , its inhibition at 10 µM was 50 to 80%

// sample Nc1cc(F)ccc1NC(=O)CCCCCNC(=O)c1ccc2c(c1)CC/C(=C\c1cc(C(F)(F)F)cc(C(F)(F)F)c1)C2=O , its inhibition at 10 µM was < 50%

###

- test-system: HDAC3 (Homo sapiens)
- Construct: purchased Enzo Life Sciences
- assay-summary: HDAC Inhibition Screening Assay (FLUOR DE LYS Fluorimetric Drug Discovery Kit), HDAC3
- Assay type: biochemical
- run-parameters: 10 μM compound
measurement-kind: inhibition at 10 µM

// sample O=C(CCCCCNC(=O)c1ccc2c(c1)CC/C(=C\c1cc(C(F)(F)F)cc(C(F)(F)F)c1)C2=O)NO , its inhibition at 10 µM was > 80%

// sample Nc1cc(F)ccc1NC(=O)c1ccc(COc2ccc3c(c2)CC(Cc2cc(C(F)(F)F)cc(C(F)(F)F)c2)C3=O)cc1 (centres unmarked) , its inhibition at 10 µM was < 50%

// sample Nc1cc(F)ccc1NC(=O)CCCCCCC(=O)NC1CCc2cc(Br)ccc21 (centres unmarked) , its inhibition at 10 µM was 50 to 80%

// sample O=C(/C=C/c1ccc(CNC(=O)COc2ccc3c(c2)CC/C(=C\c2cc(C(F)(F)F)cc(C(F)(F)F)c2)C3=O)cc1)NO , its inhibition at 10 µM was < 50%

// sample O=C(NO)c1ccc(COc2ccc3c(c2)CC(Cc2cc(C(F)(F)F)cc(C(F)(F)F)c2)C3=O)cc1 (centres unmarked) , its inhibition at 10 µM was < 50%

// sample O=C(/C=C/c1ccc2c(c1)CCC2NCCc1cc(Cl)cc(Cl)c1)NO (centres unmarked) , its inhibition at 10 µM was > 80%

// sample O=C(CCCCCCC(=O)Nc1ccc2c(c1)CC/C(=C\c1cc(C(F)(F)F)cc(C(F)(F)F)c1)C2=O)NO , its inhibition at 10 µM was 50 to 80%

// sample O=C(CCCCCCC(=O)Nc1ccc2c(c1)CCC/C2=N\O)NO , its inhibition at 10 µM was > 80%

// sample O=C(/C=C/c1ccc2c(c1)CCC2NC(=O)c1cc(C(F)(F)F)cc(C(F)(F)F)c1)NO (centres unmarked) , its inhibition at 10 µM was > 80%

// sample O=C(/C=C/c1ccc2c(c1)CCC2NC(=O)OCc1cc(C(F)(F)F)cc(C(F)(F)F)c1)NO (centres unmarked) , its inhibition at 10 µM was 50 to 80%

// sample O=C(CCCCCN(CC(=O)NC1CCc2ccccc21)CC(=O)NC1CCc2ccccc21)NO (centres unmarked) , its inhibition at 10 µM was > 80%

###

- test-system: HDAC2 (Homo sapiens)
- Construct: purchased Enzo Life Sciences
- Sequence (Q92769 whole entry): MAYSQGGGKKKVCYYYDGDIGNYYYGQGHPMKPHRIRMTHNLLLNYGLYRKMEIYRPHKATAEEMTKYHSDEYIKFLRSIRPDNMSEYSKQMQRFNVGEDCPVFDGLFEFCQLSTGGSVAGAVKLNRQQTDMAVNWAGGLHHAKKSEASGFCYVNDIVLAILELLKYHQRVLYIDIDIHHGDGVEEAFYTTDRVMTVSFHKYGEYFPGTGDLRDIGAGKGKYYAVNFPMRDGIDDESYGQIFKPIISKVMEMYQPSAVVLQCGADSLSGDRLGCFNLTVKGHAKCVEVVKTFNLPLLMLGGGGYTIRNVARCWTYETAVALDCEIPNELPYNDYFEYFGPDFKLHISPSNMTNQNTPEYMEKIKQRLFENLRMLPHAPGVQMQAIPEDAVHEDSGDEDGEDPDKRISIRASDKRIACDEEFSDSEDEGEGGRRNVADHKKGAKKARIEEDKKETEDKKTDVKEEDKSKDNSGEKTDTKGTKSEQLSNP
- assay-summary: HDAC Inhibition Screening Assay (FLUOR DE LYS Fluorimetric Drug Discovery Kit), HDAC2
- Assay type: biochemical
- run-parameters: 50 μM compound
Listed here: items and their measured inhibition at 50 µM.

Below, each entry is followed by its recorded inhibition at 50 µM result.
>  <molecule>
O=C(CCCCC(=O)N1CCN(C(=O)c2ccc3c(c2)CC/C(=C\c2cc(C(F)(F)F)cc(C(F)(F)F)c2)C3=O)CC1)NO [Compound 83]

>  <reported-value>
50 to 80%

$$$$
>  <molecule>
Cc1ccc(S(=O)(=O)NC2CCc3cc(/C=C/C(=O)NO)ccc32)cc1 (stereo not shown) [Compound 16]

>  <reported-value>
> 80%

$$$$
>  <molecule>
O=C(CCCCCCC(=O)Nc1ccc2c(c1)CCC/C2=N\O)NO [Compound 3]

>  <reported-value>
> 80%

$$$$

Reading of inhibition at 50 µM for O=C(/C=C/c1ccc2c(c1)CCC2N1CC(=O)N(c2cc(Cl)cc(Cl)c2)C1=O)NO (stereo not shown) [Compound 37] with HDAC2 (Homo sapiens): > 80%

Reading of inhibition at 50 µM for Nc1cc(F)ccc1NC(=O)/C=C/c1ccc2c(c1)CCCC2OCc1cc(C(F)(F)F)cc(C(F)(F)F)c1 (stereo not shown) [Compound 35] with HDAC2 (Homo sapiens): < 50%

###

- test-system: HDAC3 (Homo sapiens, UniProt O15379)
- Construct: purchased Enzo Life Sciences
- Sequence (O15379 whole entry): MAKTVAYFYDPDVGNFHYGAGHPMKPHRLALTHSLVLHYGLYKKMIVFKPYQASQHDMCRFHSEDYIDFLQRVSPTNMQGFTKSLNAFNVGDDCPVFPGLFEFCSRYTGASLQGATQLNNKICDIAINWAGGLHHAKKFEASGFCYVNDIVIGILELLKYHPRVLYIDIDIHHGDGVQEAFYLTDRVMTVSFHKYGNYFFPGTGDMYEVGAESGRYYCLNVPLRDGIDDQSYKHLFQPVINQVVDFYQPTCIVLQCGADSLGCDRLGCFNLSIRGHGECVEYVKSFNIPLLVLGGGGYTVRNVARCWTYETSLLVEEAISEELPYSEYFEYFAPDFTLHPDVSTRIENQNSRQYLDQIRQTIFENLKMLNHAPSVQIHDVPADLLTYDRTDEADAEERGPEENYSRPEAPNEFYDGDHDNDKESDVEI
- Sequence (O75376 395-489 partner limits assumed): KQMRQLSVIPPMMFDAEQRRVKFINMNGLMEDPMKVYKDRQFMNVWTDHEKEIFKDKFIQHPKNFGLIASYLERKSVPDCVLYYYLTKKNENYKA
- assay-summary: HDAC Inhibition Screening Assay (FLUOR DE LYS Fluorimetric Drug Discovery Kit), HDAC3
- Assay type: biochemical
- run-parameters: 50 μM compound
measurement-kind: inhibition at 50 µM

Below, each entry is followed by its recorded inhibition at 50 µM result.
>  <compound>
COc1ccc2c(c1)CCC2NC(=O)CCCCCCC(=O)NO (centres unmarked) [Compound 44]

>  <measurement-kind>
inhibition at 50 µM

>  <reported-value>
> 80%

$$$$
>  <compound>
O=C(/C=C/c1ccc2c(c1)CCC2NCCc1cc(Cl)cc(Cl)c1)NO (centres unmarked) [Compound 55]

>  <measurement-kind>
inhibition at 50 µM

>  <reported-value>
> 80%

$$$$

Below: the item to evaluate.
// sample O=C(/C=C/c1ccc2c(c1)CCC2N1CC(=O)N(c2cc(Cl)cc(Cl)c2)C1=O)NO (centres unmarked) [Compound 37] , its inhibition at 50 µM was > 80%

###

- test-system: HDAC1 (Homo sapiens)
- Construct: purchased Enzo Life Sciences
- assay-summary: HDAC Inhibition Screening Assay (FLUOR DE LYS Fluorimetric Drug Discovery Kit), HDAC1
- Format: biochemical
- run-parameters: 50 μM compound
Listed here: items and their measured inhibition at 50 µM.

// sample COc1ccc(CCNC2CCc3cc(/C=C/C(=O)NO)ccc32)cc1 (stereo not shown) , its inhibition at 50 µM was > 80%

// sample O=C(CCCCCNC(=O)COc1ccc2c(c1)CC/C(=C\c1cc(C(F)(F)F)cc(C(F)(F)F)c1)C2=O)NO , its inhibition at 50 µM was > 80%

// sample O=C(/C=C/c1ccc(COc2ccc3c(c2)CCC(Cc2cc(C(F)(F)F)cc(C(F)(F)F)c2)C3=O)cc1)NO (stereo not shown) , its inhibition at 50 µM was < 50%

// sample CN(C)c1ccc(C(=O)NC2CCc3cc(/C=C/C(=O)NO)ccc32)cc1 (stereo not shown) , its inhibition at 50 µM was > 80%

// sample O=C(NO)c1ccc(COc2ccc3c(c2)CCC(Cc2cc(C(F)(F)F)cc(C(F)(F)F)c2)C3=O)cc1 (stereo not shown) , its inhibition at 50 µM was < 50%

// sample O=C(/C=C/c1ccc(COc2ccc3c(c2)CC/C(=C\c2cc(C(F)(F)F)cc(C(F)(F)F)c2)C3=O)cc1)NO , its inhibition at 50 µM was 50 to 80%

// sample Nc1cc(F)ccc1NC(=O)/C=C/c1ccc2c(c1)CCC2NS(=O)(=O)c1cc(C(F)(F)F)cc(C(F)(F)F)c1 (stereo not shown) , its inhibition at 50 µM was < 50%

###

- test-system: ATX (autotaxin) (Homo sapiens, UniProt Q13822)
- Construct: purchased Cayman 10803
- assay-summary: Autotaxin Inhibition Screening Assay (choline release from LPC, LPC-CR)
- Type: biochemical
- run-parameters: 50 μM compound
measurement-kind: inhibition at 50 µM

Below, each entry is followed by its recorded inhibition at 50 µM result.
>  <molecule>
O=C(/C=C/c1ccc2c(c1)CC/C(=C\c1cc(C(F)(F)F)cc(C(F)(F)F)c1)C2=O)NO

>  <test-system>
ATX (autotaxin) (Homo sapiens, UniProt Q13822)

>  <measurement-kind>
inhibition at 50 µM

>  <reported-value>
50 to 80%

$$$$
>  <molecule>
O=C(CCCCCCC(=O)NC1CCc2cc(Br)ccc21)NO (stereo not shown)

>  <test-system>
ATX (autotaxin) (Homo sapiens, UniProt Q13822)

>  <measurement-kind>
inhibition at 50 µM

>  <reported-value>
< 50%

$$$$
>  <molecule>
Nc1cc(F)ccc1NC(=O)/C=C/c1ccc2c(c1)CCCC2NC(=O)c1cc(C(F)(F)F)cc(C(F)(F)F)c1 (stereo not shown)

>  <test-system>
ATX (autotaxin) (Homo sapiens, UniProt Q13822)

>  <measurement-kind>
inhibition at 50 µM

>  <reported-value>
< 50%

$$$$

Below: the item to evaluate.
// sample Nc1cc(F)ccc1NC(=O)CCCCCCC(=O)Nc1ccc2c(c1)CCC(Cc1cc(C(F)(F)F)cc(C(F)(F)F)c1)C2=O (stereo not shown) , its inhibition at 50 µM was < 50%
